target: Muscarinic acetylcholine receptor M1 (Homo sapiens, UniProt P11229)
pKi: −log10 of the molar value.
Parameter threshold = 7. Response is 1 (yes) when pKi meets or exceeds it, else 0 (no).

1) CCN1C(CCC2[C@H]3[C@H](C)OC(=O)[C@H]3C[C@H]3CCCC[C@H]23)CCC1(C)C (some centres not stated) = 0 (no)
2) C[C@@H]1OC(=O)[C@H]2C[C@H]3CCCC[C@@H]3[C@@H](/C=C/[C@@H]3CCC[C@H](C)N3C)[C@@H]12 = 0 (no)
3) C[C@@H]1OC(=O)[C@H]2C=C3CCCC[C@@H]3[C@@H]([C@@H]3CC4CCC(C)(C)N4O3)[C@@H]12 (some centres not stated) = 0 (no)

Here's the next entry for you.
Asked: Decide: pKi of C[C@@H]1OC(=O)[C@H]2C[C@H]3CCCC[C@@H]3[C@@H](/C=C/[C@H]3CCC[C@H](C)N3C)[C@@H]12 >= 7?
Given back: 1 (yes)

====

Target: Muscarinic acetylcholine receptor M2 (Homo sapiens, UniProt P08172)
Sequence (P08172 whole entry): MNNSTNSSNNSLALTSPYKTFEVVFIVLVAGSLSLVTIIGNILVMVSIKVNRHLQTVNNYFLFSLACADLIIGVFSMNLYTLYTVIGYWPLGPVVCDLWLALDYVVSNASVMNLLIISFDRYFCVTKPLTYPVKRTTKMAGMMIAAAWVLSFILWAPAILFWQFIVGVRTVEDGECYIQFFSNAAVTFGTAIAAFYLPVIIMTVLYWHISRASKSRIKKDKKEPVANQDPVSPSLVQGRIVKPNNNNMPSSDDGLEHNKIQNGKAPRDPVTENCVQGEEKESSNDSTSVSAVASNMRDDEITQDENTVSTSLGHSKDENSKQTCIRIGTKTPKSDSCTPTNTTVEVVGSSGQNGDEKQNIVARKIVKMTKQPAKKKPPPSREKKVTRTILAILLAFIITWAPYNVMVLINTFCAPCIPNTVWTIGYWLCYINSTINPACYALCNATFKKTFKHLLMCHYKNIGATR
readout-label: log10(Ki) (log10 of the value in nM)
Form field - Quantity: Ki; Unit: nM; Scale: log10

Solved cases (5 shown):
1) C[C@@H]1OC(=O)[C@H]2C[C@H]3CCCC[C@@H]3[C@@H](/C=C/[C@H]3CCC[C@H](C)N3C)[C@@H]12 = 0.65
2) CCN1C(CCC2[C@H]3[C@H](C)OC(=O)[C@H]3C[C@H]3CCCC[C@H]23)CCC1(C)C (some centres not stated) = 2.65
3) C[C@@H]1OC(=O)[C@H]2C[C@H]3CCCC[C@@H]3C(CCC3CCC(C)(C)N3C)[C@@H]12 (some centres not stated) = 1.09
4) C[C@@H]1OC(=O)[C@H]2C[C@H]3CCCC[C@@H]3[C@@H](/C(O)=C/[C@H]3CCC[C@H](C)N3C)[C@@H]12 = 2.31
5) C[C@@H]1OC(=O)[C@H]2C[C@H]3CCCC[C@@H]3/C(=C/C[C@H]3CCC[C@H](C)N3C)[C@@H]12 = 1.12

Asked: Tell me the measured log10(Ki) of C[C@@H]1OC(=O)[C@H]2C[C@H]3CCCC[C@@H]3[C@@H](CC[C@H]3CCC[C@H](C)N3)[C@@H]12 , please.
Given back: 1.20

Asked: What does the record list as log10(Ki) for C[C@@H]1OC(=O)[C@H]2C[C@H]3CCCC[C@@H]3[C@@H](CC[C@H]3CCC[C@H](C)N3C)[C@@H]12 ?
Given back: 0.63

Asked: Report log10(Ki) for C[C@@H]1OC(=O)[C@H]2C=C3CCCC[C@@H]3/C(=C/CC3CCC(C)(C)N3C)[C@@H]12 (some centres not stated) please.
Given back: 1.83

====

Target: Muscarinic acetylcholine receptor M1 (Homo sapiens, UniProt P11229)
Sequence (P11229 whole entry): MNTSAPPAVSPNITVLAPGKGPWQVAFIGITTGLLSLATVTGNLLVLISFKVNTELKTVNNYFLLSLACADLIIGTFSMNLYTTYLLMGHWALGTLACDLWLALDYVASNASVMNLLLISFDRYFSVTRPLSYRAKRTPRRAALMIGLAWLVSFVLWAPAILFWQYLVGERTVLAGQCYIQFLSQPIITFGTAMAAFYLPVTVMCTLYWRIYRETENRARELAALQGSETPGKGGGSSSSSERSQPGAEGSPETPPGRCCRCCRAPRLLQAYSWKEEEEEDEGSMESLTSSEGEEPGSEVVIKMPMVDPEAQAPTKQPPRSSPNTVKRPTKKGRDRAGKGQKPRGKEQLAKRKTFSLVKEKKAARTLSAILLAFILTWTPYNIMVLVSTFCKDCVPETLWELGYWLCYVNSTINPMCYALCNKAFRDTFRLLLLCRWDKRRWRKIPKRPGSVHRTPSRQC
readout-label: Ki (nM)
// units = nM; emit number, no label

Asked: # get_value(readout='Ki', item= C[C@@H]1OC(=O)[C@H]2C[C@H]3CCCC[C@@H]3[C@@H](CC[C@H]3CCC[C@H](C)N3)[C@@H]12 )
Given back: 68

Asked: // lookup Ki for C[C@@H]1OC(=O)[C@H]2C[C@H]3CCCC[C@@H]3/C(=C/C[C@H]3CCC[C@H](C)N3C)[C@@H]12
Given back: 65.9

Asked: May I ask what Ki has been recorded for C[C@@H]1OC(=O)[C@H]2C[C@H]3CCCC[C@@H]3C(CCC3CCC(C)(C)N3C)[C@@H]12 (stereo partly drawn) ?
Given back: 122
